Test: Selectivity index, ratio of CC50 for human A549-ACE2 cells to EC50 for antiviral activity against SARS-CoV-2 Omicron BA1 variant infected human A549-ACE2 cells
Type: toxicity
Conditions: read-out: Ratio CC50/EC50
MEASUREMENT KIND: selectivity ratio
Could you respond with only the numeric value?

Worked cases, answers included:
Cc1ccc(S(=O)(=O)N2C[C@@]34CN(Cc5nc6ccccc6s5)C[C@@H](O3)[C@@H]3[C@H]4[C@@]2(C(C)C)CC[C@@H]3O)cc1: 1.6
COc1cc(CN2C[C@H]3O[C@]4(C2)CN(S(=O)(=O)c2ccc(C)cc2)[C@]2(C(C)C)CC[C@H](O)[C@H]3[C@H]42)cc(OC)c1: 2.3

Req: Could you share which selectivity ratio value was measured for Cc1ccc(S(=O)(=O)N2C[C@@]34CN(CCc5c[nH]c6ccccc56)C[C@@H](O3)[C@@H]3[C@H]4[C@@]2(C(C)C)CC[C@@H]3O)cc1 ?
Resp: 1.6

---

Tested on: SARS-CoV-2
Assay: Antiviral activity against SARS-CoV-2 Omicron BA1 variant infected human A549-ACE2 cells assessed as inhibition of viral replication
Type: functional, organism-based
Settings: Severe acute respiratory syndrome coronavirus 2, Omicron BA1, A549-ACE2
MEASUREMENT KIND: pEC50
Please note pEC50 is a logarithmic value: minus log10 of concentration in mol/L. Answer with that number alone.

COc1cc(CN2C[C@H]3O[C@]4(C2)CN(S(=O)(=O)c2ccc(C)cc2)[C@]2(C(C)C)CC[C@H](OCCCN(C)C)[C@H]3[C@H]42)cc(OC)c1: 5.36

Req: Param readout= pEC50; system= SARS-CoV-2; entry= COc1ccc(CCN2C[C@H]3O[C@]4(C2)CN(S(=O)(=O)c2ccc(C)cc2)[C@]2(C(C)C)C=C[C@H](O)[C@H]3[C@H]42)cc1 ; returns value.
Resp: 5.46

---

Assay: Selectivity index, ratio of CC50 for human A549-ACE2 cells to EC50 for antiviral activity against SARS-CoV-2 Omicron BA1 variant infected human A549-ACE2 cells
Type: toxicity
Conditions: read-out: Ratio CC50/EC50
MEASUREMENT KIND: selectivity ratio
# respond with the number and nothing more

Example entries and their recorded answers appear below.
Cc1ccc(S(=O)(=O)N2C[C@@]34CN(Cc5ccccc5)C[C@@H](O3)[C@H]3C(=O)C=C[C@]2(C(C)C)[C@H]34)cc1: 0.9
COc1cc(CN2C[C@H]3O[C@]4(C2)CN(S(=O)(=O)c2ccc(C)cc2)[C@]2(C(C)C)CC[C@H](OCCCN(C)C)[C@H]3[C@H]42)cc(OC)c1: 5.7
COc1ccc(CCN2C[C@H]3O[C@]4(C2)CN(S(=O)(=O)c2ccc(C)cc2)[C@]2(C(C)C)C=C[C@H](O)[C@H]3[C@H]42)cc1: 3.3

Here is another molecule to look at.
Req: Name the reported selectivity ratio value associated with the molecule Cc1ccc(S(=O)(=O)N2C[C@@]34CN(C(=O)c5ccc(F)cc5N)C[C@@H](O3)[C@@H]3[C@H]4[C@@]2(C(C)C)CC[C@@H]3O)cc1
Resp: 1.4

---

Experiment: Selectivity index, ratio of CC50 for human A549-ACE2 cells to EC50 for antiviral activity against SARS-CoV-2 Omicron BA1 variant infected human A549-ACE2 cells
Assay type: toxicity
Conditions: read-out: Ratio CC50/EC50
Below, each entry is listed alongside its reported selectivity ratio.
Output spec: single numeric token, no unit.

Cc1ccc(S(=O)(=O)N2C[C@@]34CN(Cc5ccccc5)C[C@@H](O3)[C@H]3C(=O)CC[C@]2(C(C)C)[C@H]34)cc1: 0.7

Req: Given Cc1ccc(S(=O)(=O)N2C[C@@]34CN(C)C[C@@H](O3)[C@H]3[C@@H](Oc5ncccn5)CC[C@]2(C(C)C)[C@H]34)cc1 , state its recorded selectivity ratio.
Resp: 0.8

Req: GET /values?readout=selectivity ratio&item= Cc1ccc(S(=O)(=O)N2C[C@@]34CN(Cc5ccccc5)C[C@@H](O3)[C@H]3[C@@H](Oc5ncccn5)CC[C@]2(C(C)C)[C@H]34)cc1
Resp: 1

Req: What value of selectivity ratio has been recorded for this entry: Cc1ccc(S(=O)(=O)N2C[C@@]34CN(Cc5nc6ccccc6s5)C[C@@H](O3)[C@H]3C(=O)CC[C@]2(C(C)C)[C@H]34)cc1
Resp: 6.9

Req: Item COc1ccc(CCN2C[C@H]3O[C@]4(C2)CN(S(=O)(=O)c2ccc(C)cc2)[C@]2(C(C)C)C=CC(=O)[C@H]3[C@H]42)cc1 has what recorded selectivity ratio?
Resp: 0.5
